Reported MIC90 values for the following compounds.
# Test system: Mycobacterium tuberculosis (strain H37Rv)
# PROTOCOL_NOTES: MABA minimum inhibitory concentration assay (aerobic/replicating)
# Type: cell-based
# ASSAY_CONTEXT: Mycobacterium tuberculosis; M.tb H37Rv, aerobic/replicating; 90% inhibition of growth
OBSERVABLE: MIC90 (mg/L)

1) Fc1ccc(-c2cnn3c(NCc4ccccn4)cc(-c4ccc(OC(F)(F)F)cc4)nc23)cc1 [Compound 38] | 1.9
2) Fc1ccc(-c2cnn3c(NCc4ccccn4)cc(-c4cccnc4)nc23)cc1 [Compound 39] | 2.3
3) Fc1ccc(-c2cnn3c(NCc4ccccn4)cc(-c4ccccc4F)nc23)cc1 [Compound 28] | 1.79
